These data points were gathered from patent US20260070987A1.

study target: equine FcRn (large alpha subunit p51) / equine beta-2-microglobulin complex, biotinylated (equine) (UniProt P30441)
measurement protocol: SPR (Biacore), pH 6
Would you mind telling me the reported Kd of each entry?
Give bare numbers, in nM.

binder	Kd, nM
equine IgG4 T286S (antibody, part only; not given: Variable domains, not shown: another chain or arm of the molecule) constant: ASTTAPKVFPLASHSAATSGSTVALGCLVSSYFPEPVTVSWNSGALTSGVHTFPSVLQSSGLYSLSSMVTVPASSLKSQTYICNVAHPASSTKVDKKIVIKECNGGCPAECLQVGPSVFIFPPKPKDVLMISRTPTVTCVVVDVGHDFPDVQFNWYVDGVETHSATTEPKQEQFNSTYRVVSVLPIQHKDWLSGKEFKCKVNNKALPAPVERTISKPTGQPREPQVYVLAPHRDELSKNKVSVTCLVKDFYPTDIDIEWKSNGQPEPETKYSTTPAQLDSDGSYFLYSKLTVETNRWQQGTTFTCAVMHEALHNHYTEKSVSKSPGK	24.1

Note: attention shifts to another entry.
Look up Kd: equine IgG1 Y436V (antibody, part only; not given: variable domains, not shown: another chain or arm of the molecule) constant: ASTTAPKVFALAPGCGTTSDSTVALGCLVSGYFPEPVKVSWNSGSLTSGVHTFPSVLQSSGFYSLSSMVTVPASTWTSETYICNVVHAASNFKVDKRIEPIPDNHQKVCDMSKCPKCPAPELLGGPSVFIFPPNPKDTLMITRTPEVTCVVVDVSQENPDVKFNWYMDGVEVRTATTRPKEEQFNSTYRVVSVLRIQHQDWLSGKEFKCKVNNQALPQPIERTITKTKGRSQEPQVYVLAPHPDELSKSKVSVTCLVKDFYPPEINIEWQSNGQPELETKYSTTQAQQDSDGSYFLYSKLSVDRNRWQQGTTFTCGVMHEALHNHVTQKNVSKNPGK 9.06
